Please provide measured melting point for the entries that follow.

Solved entries (count: 2):
>>> print(df.to_string())
                             compound     observable         result
0  Cn1ccc2cc(N3Cc4ccc(O)cc4C3=O)ccc21  melting point  230 to 235 °C
1     O=C1c2cc(O)ccc2CN1c1ccc2sccc2c1  melting point  226 to 228 °C

For every item in the list below, what is its measured melting point?
1. Cn1ccc2cc(N3Cc4ccc(N5CCCC5)cc4C3=O)ccc21
2. CC(C)Cc1ccc2c(c1)C(=O)N(c1ccc3c(ccn3C)c1)C2

[A]
["252 to 253 °C", "193 to 194 °C"]

For every item in the list below, what is its measured melting point?
1. COc1ccc2c(c1)C(=O)N(c1ccc3[nH]c(=O)ccc3c1)C2
2. CC(=O)Nc1cccc2c1CN(c1ccc3ccn(C)c3c1)C2=O
3. Cn1ccc2ccc(N3Cc4ccc(-c5cccnc5)cc4C3=O)cc21
4. CCC(C)c1ccc2c(c1)C(=O)N(c1ccc3c(ccn3C)c1)C2 (stereo not shown)
5. COc1ccc2c(c1)C(=O)N(c1ccc3c(c1)n(C)c(=O)n3C)C2

[A]
["305 to 310 °C", "180 to 184 °C", "187 to 188 °C", "146 to 147 °C", "268 to 270 °C"]

According to the records, this compound COc1ccc2c(c1)C(=O)N(c1ccc3cnn(C)c3c1)C2 displays melting point of 175 to 177 °C
